# Test Target: NAMPT (Homo sapiens, UniProt P43490)
# Sequence (P43490 whole entry): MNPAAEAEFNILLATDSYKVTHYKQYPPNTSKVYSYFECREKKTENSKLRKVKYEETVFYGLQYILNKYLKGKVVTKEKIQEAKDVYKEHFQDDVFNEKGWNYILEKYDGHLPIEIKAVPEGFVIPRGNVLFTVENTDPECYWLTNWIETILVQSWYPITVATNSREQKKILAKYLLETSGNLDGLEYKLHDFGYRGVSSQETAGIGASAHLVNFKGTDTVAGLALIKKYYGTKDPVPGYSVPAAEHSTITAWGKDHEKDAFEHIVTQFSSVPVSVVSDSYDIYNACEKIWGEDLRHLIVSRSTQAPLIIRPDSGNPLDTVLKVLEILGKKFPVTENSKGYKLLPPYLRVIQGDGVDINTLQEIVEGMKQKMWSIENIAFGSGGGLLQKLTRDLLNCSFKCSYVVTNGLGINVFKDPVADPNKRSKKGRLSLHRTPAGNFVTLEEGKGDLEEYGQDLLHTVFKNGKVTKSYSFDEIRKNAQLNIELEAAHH
# Assay Procedure: TR-FRET Binding Assay of NAMPT with PRPP
# Test Conditions: 2 nM NAMPT, 2 nM probe, 200 µM PRPP and 2.5 mM ATP, equilibrated 16 hours
# Protocol: Time-Resolved Fluorescence Resonance Energy Transfer (TR-FRET) Binding Assay of NAMPT with PRPP Compound handling and data processing were identical to the assay in the absence of substrates (above). Final concentrations were 1× assay buffer, 2% DMSO, 2 nM NAMPT, 2 nM probe, 1 nM Tb-anti-His antibody (Invitrogen #PV5895), 200 µM PRPP and 2.5 mM ATP. Reactions were equilibrated for 16 hours prior to measurement to allow for potential enzymatic modification of test compounds.
Outcome Measure: IC50 (nM)
Express your answer in nM, writing the number without its unit.

Cc1ccc(C(=O)N2CCC(c3ccc(NC(=O)N4CC(c5cccnc5)C4)cc3)C2)s1 (centres unmarked) [Example 283] has a reported IC50 of 0.266

CC1(C(=O)N2CC(Oc3ccc(NC(=O)N4CC(c5cccnc5)C4)cc3)C2)CCCCC1 [Example 152] has a reported IC50 of 0.42

CC[C@H](C)C(=O)N1CCC(Oc2ccc(NC(=O)N3CC(c4cccnc4)C3)cc2)CC1 [Example 4] has a reported IC50 of 0.195

O=C(CC1CC1)N1CC(Oc2ccc(NC(=O)N3CC(c4cccnc4)C3)cc2)C1 [Example 114] has a reported IC50 of 0.189

CCOCCC(=O)N1CC[C@@H](Oc2ccc(NC(=O)N3CC(c4cccnc4)C3)cc2)C1 [Example 314] has a reported IC50 of 0.178

CC(C)(C)C(=O)N1CCC(Oc2ccc(NC(=O)N3CC(c4cccnc4)C3)cc2)CC1 [Example 44] has a reported IC50 of 0.315

CC[C@H](C)C(=O)N1CC(Oc2ccc(NC(=O)N3CC(c4cccnc4)C3)cc2)C1 [Example 1] has a reported IC50 of 0.873

O=C(CN1CCOCC1)N1CCC(c2ccc(NC(=O)N3CC(c4cccnc4)C3)cc2)C1 (centres unmarked) [Example 263] has a reported IC50 of 0.239

O=C(Nc1ccc(C2CCN(C(=O)c3cccs3)CC2)cc1)N1CC(c2cccnc2)C1 [Example 188] has a reported IC50 of 0.188

CC(C)(O)C(=O)N1CCC(c2ccc(NC(=O)N3CC(c4cccnc4)C3)cc2)C1 (centres unmarked) [Example 70] has a reported IC50 of 0.421

O=C(Nc1ccc(OC2CN(C(=O)C3CCCCC3)C2)cc1)N1CC(c2cccnc2)C1 [Example 139] has a reported IC50 of 0.442

CCCCC(=O)N1CC(Oc2ccc(NC(=O)N3CC(c4cccnc4)C3)cc2)C1 [Example 117] has a reported IC50 of 0.327

O=C(CCC(F)(F)F)N1CC[C@@H](Oc2ccc(NC(=O)N3CC(c4cccnc4)C3)cc2)C1 [Example 311] has a reported IC50 of 0.592

CC(C)C(C)C(=O)N1CCC(c2ccc(NC(=O)N3CC(c4cccnc4)C3)cc2)CC1 (centres unmarked) [Example 197] has a reported IC50 of 0.505

CC(C)(O)C(=O)N1CCC(c2ccc(NC(=O)N3CC(c4cccnc4)C3)cc2)CC1 [Example 51] has a reported IC50 of 0.303

O=C(Nc1ccc(C2CCN(CC3CCOC3)CC2)cc1)N1CC(c2cccnc2)C1 (centres unmarked) [Example 243] has a reported IC50 of 0.326

CCC(=O)N1CC(c2ccc(NC(=O)N3CC(c4cccnc4)C3)cc2)C1 [Example 226] has a reported IC50 of 0.44

----------
# Test Target: NAMPT (Homo sapiens, UniProt P43490)
# Assay Procedure: TR-FRET Binding Assay of NAMPT with PRPP
# Test Conditions: 2 nM NAMPT, 2 nM probe, 200 µM PRPP and 2.5 mM ATP, equilibrated 16 hours
Outcome Measure: pIC50
In simple prose, pIC50 is minus the logarithm base ten of a concentration in moles per litre.

CN1CCN(CC(=O)N2CC[C@@H](Oc3ccc(NC(=O)N4CC(c5cccnc5)C4)cc3)C2)CC1 [Example 312] has a reported pIC50 of 9.54

CN(C)CCC(=O)N1CC(Oc2ccc(NC(=O)N3CC(c4cccnc4)C3)cc2)C1 [Example 150] has a reported pIC50 of 8.55

CCC(C)CN1CC(c2ccc(NC(=O)N3CC(c4cccnc4)C3)cc2)C1 (centres unmarked) [Example 255] has a reported pIC50 of 9.76

CC(=O)N1CCC(c2ccc(NC(=O)N3CC(c4cccnc4)C3)cc2)CC1 [Example 183] has a reported pIC50 of 9.42

O=C(Nc1ccc(OC2CN(C(=O)C3CC3)C2)cc1)N1CC(c2cccnc2)C1 [Example 140] has a reported pIC50 of 9.74

O=C(Nc1ccc(C2CCN(C(=O)c3ccoc3)CC2)cc1)N1CC(c2cccnc2)C1 [Example 182] has a reported pIC50 of 9.66

CC(C)(C)OC(=O)N1CCC(c2ccc(NC(=O)N3CC(c4cccnc4)C3)cc2)C1 (centres unmarked) [Example 59] has a reported pIC50 of 9.44

CCOCC(=O)N1CCC(c2ccc(NC(=O)N3CC(c4cccnc4)C3)cc2)C1 (centres unmarked) [Example 288] has a reported pIC50 of 9.64

----------
# Test Target: NAMPT (Homo sapiens)
# Assay Procedure: Time-Resolved Fluorescence Resonance Energy Transfer (TR-FRET) Binding Assay of NAMPT
# Test Conditions: 6.8 nM NAMPT, 200 nM probe, equilibrated 3 hours, no substrates
Outcome Measure: pIC50
In simple prose, pIC50 is minus the logarithm base ten of a concentration in moles per litre.

The measured pIC50 that "Cc1ccsc1C(=O)N1CCC(c2ccc(NC(=O)N3CC(c4cccnc4)C3)cc2)CC1" showed for NAMPT (Homo sapiens) is 8.53

The measured pIC50 that O=C(CC1CCOCC1)N1CCC(c2ccc(NC(=O)N3CC(c4cccnc4)C3)cc2)C1 (centres unmarked) showed for NAMPT (Homo sapiens) is 7.28

The measured pIC50 that "CC(C)(C)OC(=O)N1CC(c2ccc(NC(=O)N3CC(c4cccnc4)C3)cc2)C1" showed for NAMPT (Homo sapiens) is 7.04

The measured pIC50 that "CCC(C)(C)C(=O)N1CCC(c2ccc(NC(=O)N3CC(c4cccnc4)C3)cc2)CC1" showed for NAMPT (Homo sapiens) is 8.27

The measured pIC50 that "O=C(CC1CC1)N1CC(Oc2ccc(NC(=O)N3CC(c4cccnc4)C3)cc2)C1" showed for NAMPT (Homo sapiens) is 7.80

The measured pIC50 that "COCC(=O)N1CCC(Oc2ccc(NC(=O)N3CC(c4cccnc4)C3)cc2)CC1" showed for NAMPT (Homo sapiens) is 6.69

The measured pIC50 that "CC(=O)N1CC(c2ccc(NC(=O)N3CC(c4cccnc4)C3)cc2)C1" showed for NAMPT (Homo sapiens) is 6.56

The measured pIC50 that "CCOCCC(=O)N1CCC(c2ccc(NC(=O)N3CC(c4cccnc4)C3)cc2)CC1" showed for NAMPT (Homo sapiens) is 7.54

The measured pIC50 that "CC(C)CCC(=O)N1CCC(c2ccc(NC(=O)N3CC(c4cccnc4)C3)cc2)CC1" showed for NAMPT (Homo sapiens) is 7.76

The measured pIC50 that "O=C(Nc1ccc(C2CN(CC3CCCCC3)C2)cc1)N1CC(c2cccnc2)C1" showed for NAMPT (Homo sapiens) is 6.36

The measured pIC50 that "CN1CCN(CCC(=O)N2CCC(Oc3ccc(NC(=O)N4CC(c5cccnc5)C4)cc3)CC2)CC1" showed for NAMPT (Homo sapiens) is 7.46

The measured pIC50 that "CC(C)(C)OC(=O)N1CC[C@H](Oc2ccc(NC(=O)N3CC(c4cccnc4)C3)cc2)C1" showed for NAMPT (Homo sapiens) is 7.68

The measured pIC50 that "O=C(Nc1ccc(OC2CN(C(=O)c3ccoc3)C2)cc1)N1CC(c2cccnc2)C1" showed for NAMPT (Homo sapiens) is 7.68

The measured pIC50 that "O=C(Nc1ccc(C2CCN(CC3CCCCC3)CC2)cc1)N1CC(c2cccnc2)C1" showed for NAMPT (Homo sapiens) is 6.45

The measured pIC50 that "O=C(CC1CCCCC1)N1CC[C@@H](Oc2ccc(NC(=O)N3CC(c4cccnc4)C3)cc2)C1" showed for NAMPT (Homo sapiens) is 7.52

The measured pIC50 that "CC(=O)N[C@@H](CC(C)C)C(=O)N1CCC(c2ccc(NC(=O)N3CC(c4cccnc4)C3)cc2)CC1" showed for NAMPT (Homo sapiens) is 7.51

The measured pIC50 that CCC(C)CN1CC(c2ccc(NC(=O)N3CC(c4cccnc4)C3)cc2)C1 (centres unmarked) showed for NAMPT (Homo sapiens) is 6.57

----------
# Test Target: NAMPT (Homo sapiens, UniProt P43490)
# Assay Procedure: TR-FRET Binding Assay of NAMPT with PRPP
# Test Conditions: 2 nM NAMPT, 2 nM probe, 200 µM PRPP and 2.5 mM ATP, equilibrated 16 hours
Outcome Measure: IC50 (nM)
Express your answer in nM, writing the number without its unit.

CC(C)(C)C(=O)N1CCC(c2ccc(NC(=O)N3CC(c4cccnc4)C3)cc2)CC1 [Example 171] has a reported IC50 of 0.231

O=C(CC(F)(F)F)N1CCC(Oc2ccc(NC(=O)N3CC(c4cccnc4)C3)cc2)CC1 [Example 6] has a reported IC50 of 0.224

CC1CC1C(=O)N1CCC(c2ccc(NC(=O)N3CC(c4cccnc4)C3)cc2)C1 (stereo not shown) [Example 262] has a reported IC50 of 0.252

CC(C)(O)C(=O)N1CC(Oc2ccc(NC(=O)N3CC(c4cccnc4)C3)cc2)C1 [Example 30] has a reported IC50 of 0.255
